# Target or test system: FGFR3 (h) (Homo sapiens)
# Sequence (P22607 23-806): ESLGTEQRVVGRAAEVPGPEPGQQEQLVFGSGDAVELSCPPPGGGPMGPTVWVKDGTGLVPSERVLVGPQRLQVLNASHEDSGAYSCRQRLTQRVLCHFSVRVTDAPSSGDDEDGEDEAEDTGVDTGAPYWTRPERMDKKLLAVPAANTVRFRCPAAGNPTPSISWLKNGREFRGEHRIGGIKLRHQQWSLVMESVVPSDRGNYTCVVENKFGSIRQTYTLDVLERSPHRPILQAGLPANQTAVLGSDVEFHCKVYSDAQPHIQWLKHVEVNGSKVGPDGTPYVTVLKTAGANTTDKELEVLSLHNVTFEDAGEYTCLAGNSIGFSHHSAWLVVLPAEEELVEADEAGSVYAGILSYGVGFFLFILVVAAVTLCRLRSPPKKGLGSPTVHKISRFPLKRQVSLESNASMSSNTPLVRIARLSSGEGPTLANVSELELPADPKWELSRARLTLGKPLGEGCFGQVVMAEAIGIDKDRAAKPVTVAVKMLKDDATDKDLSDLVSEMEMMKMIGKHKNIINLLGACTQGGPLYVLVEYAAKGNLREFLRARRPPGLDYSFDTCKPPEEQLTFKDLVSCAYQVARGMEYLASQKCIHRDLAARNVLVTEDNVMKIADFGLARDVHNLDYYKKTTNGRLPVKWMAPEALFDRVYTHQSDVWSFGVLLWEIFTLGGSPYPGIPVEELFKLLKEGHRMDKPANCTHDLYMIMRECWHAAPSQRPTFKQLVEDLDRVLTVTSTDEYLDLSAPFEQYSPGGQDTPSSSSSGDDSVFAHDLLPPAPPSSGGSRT
# Protocol details: FGFR3 (enzymatic assay), TR-FRET
# Assay type: biochemical
# Stated conditions: average values if tested multiple times, read-out: FGFR 3 pIC50 (converted)
Counter-ions that a name gives are not always drawn.
Measure name: IC50 (nM)
Entry rule: numbers only, all in nM.

Below: 4 compounds and their reported IC50.
# Compound, Number
rows = [
    ("CNCCn1/c(=N/c2c(Cl)ccc(OC)c2Cl)ccc2ncc(-c3cnn(C)c3)nc21 [Compound 84]", 363),
    ("COc1cc(OC)c(F)c(N(CC(O)COC(C)C)c2ccc3ncc(-c4cnn(C)c4)nc3n2)c1 (single isomer, unassigned) [Compound 78]", 2.34),
    ("COc1cc(OC)c(Cl)c(N(C[C@H]2CCC(=O)N2)c2ccc3ncc(-c4cnn(C)c4)nc3n2)c1Cl [Compound 97]", 4.68),
    ("CNCCN(c1ccc2ncc(-c3cnn(C)c3)nc2n1)c1c(Cl)c(OC)cc(OC)c1Cl [Compound 81]", 8.13),
]

Notebook entry, FGFR3 (h) (Homo sapiens) assay: IC50 of COc1cc(OC)cc(N(Cc2ncc[nH]2)c2ccc3ncc(-c4cnn(C)c4)nc3n2)c1 [24-phosphate salt] = ?
0.832

Let us now turn to COc1cc(OC)c(F)c(N(CC2CCC(=O)N2)c2ccc3ncc(-c4cnn(C)c4)nc3n2)c1 (stereo not drawn) [Compound 52]
1.95

Moving on to the next compound: Cn1cc(-c2cnc3ccc(N(Cc4ncc[nH]4)c4cc(F)cc(F)c4)nc3n2)cn1 [Compound 27]
3.89

Then this compound: COc1cc(OC)c(F)c(N(Cc2nc[nH]n2)c2ccc3ncc(-c4cnn(C)c4)nc3n2)c1 [Compound 86]
1

Quick one: CNCCn1/c(=N/c2cc(OC)cc(OC)c2F)ccc2ncc(-c3cnn(C)c3)nc21 [Compound 38]
4.9

Repeat for the following compound: COCC(O)CN(c1ccc2ncc(-c3cnn(C)c3)nc2n1)c1c(F)c(OC)cc(OC)c1F (stereo not drawn) [Compound 50]
3.63

Check COc1ccc(Cl)c(/N=c2\ccc3ncc(-c4cnn(C)c4)nc3n2CC2CCC(=O)N2)c1Cl (single isomer, unassigned) [Compound 89] too.
97.7

Same for COc1cc(OC)c(F)c(N(Cc2ncc[nH]2)c2ccc3ncc(-c4cnn(C)c4)nc3n2)c1 [23-Sulfate salt]
1.12

Proceed to COc1cc(OC)c(F)c(N(CCNC(C)C)c2ccc3ncc(-c4cnn(C)c4)nc3n2)c1 [Compound 2]
3.16

Next compound up: COc1cc(OC)c(F)c(/N=c2\ccc3ncc(-c4cnn(C)c4)nc3n2CCCN2CCCC2=O)c1F [Compound 55]
0.49

---

Listing of entries alongside the reported BAF3-FGFR3 (MIN IL3) pIC50.
# Target or test system: Ba/F3-FGFR3-transfected cells (Homo sapiens, UniProt P22607)
# Construct: BAF3-FGFR3 (MIN IL3) pIC50; other: minus IL3
# Sequence (P22607 whole entry, change not shown): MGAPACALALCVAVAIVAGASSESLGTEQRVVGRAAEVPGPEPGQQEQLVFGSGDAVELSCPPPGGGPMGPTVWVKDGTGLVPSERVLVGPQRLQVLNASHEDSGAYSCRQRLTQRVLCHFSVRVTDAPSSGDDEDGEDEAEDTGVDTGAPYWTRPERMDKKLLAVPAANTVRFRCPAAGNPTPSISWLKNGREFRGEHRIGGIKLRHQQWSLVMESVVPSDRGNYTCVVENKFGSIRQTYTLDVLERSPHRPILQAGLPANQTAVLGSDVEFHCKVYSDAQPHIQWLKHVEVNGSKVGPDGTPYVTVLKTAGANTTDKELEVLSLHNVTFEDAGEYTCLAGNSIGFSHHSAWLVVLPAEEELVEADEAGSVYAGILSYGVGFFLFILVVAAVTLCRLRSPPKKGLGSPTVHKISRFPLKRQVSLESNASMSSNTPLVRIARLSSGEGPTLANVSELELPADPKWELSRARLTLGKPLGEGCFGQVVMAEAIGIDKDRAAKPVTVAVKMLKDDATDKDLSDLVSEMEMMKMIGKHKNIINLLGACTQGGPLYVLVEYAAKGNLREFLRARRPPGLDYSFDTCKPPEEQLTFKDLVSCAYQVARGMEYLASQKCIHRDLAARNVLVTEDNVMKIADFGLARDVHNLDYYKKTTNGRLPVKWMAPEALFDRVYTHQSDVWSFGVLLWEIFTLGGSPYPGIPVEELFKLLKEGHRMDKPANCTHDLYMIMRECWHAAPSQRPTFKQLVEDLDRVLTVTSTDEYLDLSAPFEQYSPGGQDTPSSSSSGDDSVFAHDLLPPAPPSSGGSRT
# Protocol details: Ba/F3-FGFR3 (minus IL3) cellular proliferation assay, Alamar Blue
# Assay type: cell-based
Enter the number alone.

// worked examples, BAF3-FGFR3 (MIN IL3) pIC50 included
# Compound, BAF3-FGFR3 (MIN IL3) pIC50
rows = [
    ("COc1cc(OC)cc(N(CC2COC2)c2ccc3ncc(-c4cnn(C)c4)nc3n2)c1 [Compound 142]", 5.30),
    ("COc1cc(/N=c2\\ccc3ncc(-c4cnn(C)c4)nc3n2CC2COC2)c(F)c(OC)c1 [Compound 143]", 5.42),
    ("COc1cc(OC)c(F)c(N(CCS(C)(=O)=O)c2ccc3ncc(-c4cnn(CCS(C)(=O)=O)c4)nc3n2)c1 [Compound 266]", 6.35),
]

Moving on to the next compound.
What does the record list as BAF3-FGFR3 (MIN IL3) pIC50 for COc1cc(OC)c(F)c(N(CC2COC2)c2ccc3ncc(-c4cnn(C)c4)nc3n2)c1 [Compound 144] ?
6.33
